Biological target: T1, his-tagged cTfR1 (Acro Biosystems p/n TFR-C524a) (cynomolgus monkey, UniProt H9EXL1 89-760 (rhesus entry))
T1 construct: Bought reagent of the SPR assay
T1 sequence (chain, as listed by the source): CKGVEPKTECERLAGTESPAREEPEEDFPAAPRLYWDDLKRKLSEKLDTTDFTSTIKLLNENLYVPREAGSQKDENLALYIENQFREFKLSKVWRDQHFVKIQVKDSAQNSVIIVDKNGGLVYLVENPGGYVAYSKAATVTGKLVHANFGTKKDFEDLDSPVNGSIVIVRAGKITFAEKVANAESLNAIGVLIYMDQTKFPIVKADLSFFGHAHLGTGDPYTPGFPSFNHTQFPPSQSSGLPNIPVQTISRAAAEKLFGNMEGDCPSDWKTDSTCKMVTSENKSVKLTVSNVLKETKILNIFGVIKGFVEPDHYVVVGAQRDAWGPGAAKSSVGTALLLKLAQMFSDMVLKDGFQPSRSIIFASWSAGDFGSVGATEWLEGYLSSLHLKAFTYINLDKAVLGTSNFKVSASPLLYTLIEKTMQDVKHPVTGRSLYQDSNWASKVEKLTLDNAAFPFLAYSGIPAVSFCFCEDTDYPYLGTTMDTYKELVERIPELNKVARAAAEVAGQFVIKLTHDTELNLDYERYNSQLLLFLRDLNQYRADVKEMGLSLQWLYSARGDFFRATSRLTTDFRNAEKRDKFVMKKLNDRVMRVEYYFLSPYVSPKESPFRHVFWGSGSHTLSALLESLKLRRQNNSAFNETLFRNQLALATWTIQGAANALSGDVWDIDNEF
Assay: SPR, Biacore X100, His-tagged TfR1 captured by anti-His
Procedure: Samples were analyzed via Surface Plasmon Resonance (SPR) to determine kinetics against cynomolgus monkey transferrin receptor 1 (cTfR1). […] A cycle was performed for each sample concentration analyzed along with one cycle repeating one concentration for variability evaluation and 2-3 buffer cycles. Results were analyzed in Biacore Evaluation Software. […] A monovalent or kinetic fit was specified as relevant for the sample analyzed. […]
// map Kd onto a label; ranges band A: < 2 nM; band B: ≥ 2 nM and < 4 nM; band C: ≥ 4 nM

| binder | groupLabel |
| --- | --- |
| Fab0071 (Fab, V domains shown) VH: EVQLVESGGGLVQPGGSLRLSCATSGYTFNSYWMHWVRQAPGKGLEWVAEINPTNGRTNYIEKFKSRITLSVDKSKSTVYLQMNSLRAEDTAVYYCARGTRAYHYWGQGTLVTVSS VL: DIQLTQSPSSLSASVGDRVTITCRASDGLYSNLAWYQQKPGKAPKLLIYDARNLASGVPSRFSGSGSGTDYTLTISSLQPEDFATYYCQHFWGTPLTFGQGTKVEIKR | band C |

Query: Bin this entry: Fab0066 (Fab, V domains shown) VH: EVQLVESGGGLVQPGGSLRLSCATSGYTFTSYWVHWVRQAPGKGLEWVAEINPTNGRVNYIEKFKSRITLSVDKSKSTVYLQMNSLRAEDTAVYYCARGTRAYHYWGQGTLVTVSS VL: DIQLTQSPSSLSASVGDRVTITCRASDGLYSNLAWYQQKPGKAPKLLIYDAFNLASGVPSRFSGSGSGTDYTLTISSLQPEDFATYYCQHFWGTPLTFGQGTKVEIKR
Result: band C

Query: Now consider Fab0070 (Fab, V domains shown) VH: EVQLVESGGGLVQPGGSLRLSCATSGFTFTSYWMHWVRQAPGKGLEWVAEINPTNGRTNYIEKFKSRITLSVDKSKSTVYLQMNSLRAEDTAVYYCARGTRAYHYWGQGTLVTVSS VL: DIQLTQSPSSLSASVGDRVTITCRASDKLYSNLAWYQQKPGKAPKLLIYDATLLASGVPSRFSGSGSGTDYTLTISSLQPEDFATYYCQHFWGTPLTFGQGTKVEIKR and answer again.
Result: band C

Query: Now consider Fab0068 (Fab, V domains shown) VH: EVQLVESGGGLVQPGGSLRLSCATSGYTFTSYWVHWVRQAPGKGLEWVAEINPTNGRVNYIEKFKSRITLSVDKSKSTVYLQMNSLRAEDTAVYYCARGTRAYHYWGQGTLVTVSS VL: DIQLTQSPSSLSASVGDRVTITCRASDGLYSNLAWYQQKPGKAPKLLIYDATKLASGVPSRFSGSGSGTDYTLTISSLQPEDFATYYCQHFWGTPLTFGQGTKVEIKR and answer again.
Result: band B

Query: Now consider Fab0067 (Fab, V domains shown) VH: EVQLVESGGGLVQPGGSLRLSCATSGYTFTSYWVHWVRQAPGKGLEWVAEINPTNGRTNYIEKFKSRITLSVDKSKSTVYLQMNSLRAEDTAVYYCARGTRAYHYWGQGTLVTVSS VL: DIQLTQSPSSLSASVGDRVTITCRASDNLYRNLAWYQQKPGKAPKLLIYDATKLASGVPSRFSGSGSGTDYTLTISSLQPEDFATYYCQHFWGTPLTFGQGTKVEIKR and answer again.
Result: band A
